- TARGET_OR_SYSTEM: T1, Human CD98 ECD with N-terminal His-tag (human, UniProt P08195 105-529)
- T1 construct: The entry includes the linker and the polyhistidine tag; also called huCD98 ECD
- T1 sequence: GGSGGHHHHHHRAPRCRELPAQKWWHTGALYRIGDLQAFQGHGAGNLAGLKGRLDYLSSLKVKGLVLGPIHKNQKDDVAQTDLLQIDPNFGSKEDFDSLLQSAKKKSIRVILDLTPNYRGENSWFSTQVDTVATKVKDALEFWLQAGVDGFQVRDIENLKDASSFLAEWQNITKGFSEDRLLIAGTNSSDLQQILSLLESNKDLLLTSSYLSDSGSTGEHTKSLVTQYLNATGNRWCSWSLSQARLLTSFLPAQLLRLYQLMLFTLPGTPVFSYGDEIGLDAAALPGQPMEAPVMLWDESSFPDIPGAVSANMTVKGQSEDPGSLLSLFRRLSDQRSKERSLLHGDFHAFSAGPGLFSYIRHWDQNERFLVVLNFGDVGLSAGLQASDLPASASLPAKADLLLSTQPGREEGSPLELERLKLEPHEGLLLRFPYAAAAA
- ASSAY_REMARKS: SPR (Biacore), recombinant CD98 ECD
I'd appreciate it if you could supply pKd values for the items below.
Please keep in mind that pKd is minus log10 of the molar concentration; only the number is needed.

According to the records, this binder huAb105 (antibody, V domains shown, Framework re-engineered humanized clone (parent huAb15v1), expressed as full-length IgG) VH: EVQLVESGGGLVQPGGSLRLSCAASGFTFSDYTMAWVRQAPGKGLEWVATIIYSGRGTYYRDAVKGRFTISRDNAKNTLYLQMNSLRAEDTAVYYCARQSDHTYYYWGYFDYWGQGTMVTVSS VL: DIVMTQTPLSLPVTPGEPASINCKSSQSLLFSGNQKNYLAWYLQKPGQSPQLLIYWASTRQSGVPDRFSGSGSGTDFTLKISRVEAEDVGIYYCQQYYDVPYTFGQGTKLEIK displays pKd of 9.77

Looking up huAb104 (antibody, human IgG1, kappa, L234A L235A, V domains shown, Framework re-engineered humanized clone (parent huAb3v2); also called CL-huAb104) VH: EVQLVESGGGLVQPGGSLRLSCATSGFTFIDYYMSWVRQAPGKGLEWLGFIRNKAYGYTTEYSASVKGRFTISRDNSKSILYLQMNSLKTEDTAVYYCTRDRPAWFVYWGQGTLVTVSS VL: DIVMTQTPLSLPVTPGEPASISCKSSQSLLYSSNQKNYLAWYLQKPGQSPQLLIYWASTRESGVPDRFSGSGSGTDFTLKISRVEAEDVGVYYCQQYYSYPYTFGGGTKVEIKR , I found its pKd recorded as 8.70

// huAb102 (antibody, human IgG1, kappa, L234A L235A, V domains shown, Framework re-engineered humanized clone (parent huAb3v1); also called CL-huAb102) VH: EVQLVESGGGLVQPGGSLRLSCATSGFTFIDYYMSWVRQAPGKGLEWLGFIRNKANRYTTEYSASVKGRFTISRDNSKSILYLQMNSLKTEDTAVYYCTRDRPAWFVYWGQGTLVTVSS VL: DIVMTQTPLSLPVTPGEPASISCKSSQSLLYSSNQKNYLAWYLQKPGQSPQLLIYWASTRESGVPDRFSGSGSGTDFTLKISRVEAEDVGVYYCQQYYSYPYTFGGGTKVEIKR : pKd value = 8.26
